experiment: NCI Yeast Anticancer Drug Screen. Data for the rad18 strain (AID 177); conditions: S. cerevisiae rad18 mutant growth inhibition; at 33.0 µM; active compounds read high
The panel holds about 79,000 compounds, 15% with a hit somewhere; the sample as a whole holds those more often. Active and inactive are the calls of the source. No stated cut-off is given here; in the data, active means growth inhibition above about 70%; inactive means the rest.
compounds and their reported growth inhibition

Please review the entries below; each comes with its answer.
{"Compound": "Cc1ccccc1NC(=O)Cc1csc(N/N=C2\\NC(=O)/C(=C/c3cccc([N+](=O)[O-])c3)S2)n1", "growth inhibition": "32% (inactive)"}
{"Compound": "CCC(=O)Oc1ccc(/C=N/NC(N)=S)nc1", "growth inhibition": "-8% (inactive)"}
{"Compound": "O=C1c2c(O)cccc2-c2nn(CCNCCO)c3ccc(NCCNCCO)c1c23", "growth inhibition": "9% (inactive)"}
{"Compound": "CCNc1ccc2c(c1)C(=O)N(OS(C)(=O)=O)C2=O", "growth inhibition": "14% (inactive)"}
{"Compound": "O=Nc1ccc(Nc2ccccc2)cc1", "growth inhibition": "77% (active)"}

Reported growth inhibition for O=C1C=CC(=O)N1c1ccc(I)cc1 was 99% (active)

Reported growth inhibition for CC1=CCC(C(C)(C)c2ccc(O)cc2)CC1 (stereo not given) was 96% (active)

Reported growth inhibition for N#Cc1sc2c(c1OC(=O)c1ccco1)c(=O)n(-c1ccccc1)c(=S)n2-c1ccccc1 was 2% (inactive)

Reported growth inhibition for CC(C)(C)c1ccc(O)c(C(c2ccc([N+](=O)[O-])cc2)c2cc(C(C)(C)C)ccc2O)c1 was 70% (active)

Reported growth inhibition for COc1ccc(N=N/C(=N\NC(=O)c2cc(Br)ccc2O)c2ccc(N(CCC#N)CCC#N)cc2OC)cc1 was 33% (inactive)

Reported growth inhibition for O=NN(CCCl)C(=O)NC1CCCCC1 was 92% (active)

Reported growth inhibition for Cc1ccc2occ/c(=N\Nc3ccccc3)c2c1 was 62% (inactive)

Reported growth inhibition for Cc1onc(-c2ccccc2Cl)c1C1=N/C(=C/c2cc(Cl)cc(Cl)c2O)C(=O)O1 was -21% (inactive)

Reported growth inhibition for CCCCC1=NNC(=O)C1 was 1% (inactive)

Reported growth inhibition for CCOC(=O)C1=C(C)NC(C)=C(C(=O)OCC)C1c1ccc(C)cc1 was 96% (active)

Reported growth inhibition for CN(C)Cc1cccc(CN(C)C)[c]1[Sn]([Br])([c]1ccccc1)[c]1ccccc1 was 82% (active)

Reported growth inhibition for ClCCn1c(CCl)nc2ccc(Cl)cc21 was 78% (active)

Reported growth inhibition for Oc1ccccc1N=Cc1ccc(Cl)cc1 was 64% (inactive)

Reported growth inhibition for NC(N)=N/N=C/c1cc(Cl)cc(Cl)c1O was 49% (inactive)

Reported growth inhibition for O=[N+]([O-])c1cc(S(=O)(=O)Nc2ccccc2)ccc1Cl was 94% (active)

Reported growth inhibition for C/C(=N\NC(=S)NNC(=S)N(C)c1ccccc1)c1ccccn1 was 98% (active)

Reported growth inhibition for COc1ccc(/C(C#N)=C/c2ccc(OC)c(OC)c2)cc1 was 0% (inactive)

Reported growth inhibition for OCCN(CCO)c1ccc2c(c1)Cc1ccccc1-2 was 82% (active)

Reported growth inhibition for C(=N/NC1=NCCN1)/c1c2ccccc2c(/C=N\NC2=NCCN2)c2ccccc12 was 78% (active)

Reported growth inhibition for [N-]=[N+]=NC(c1ccccc1)(c1ccccc1)c1ccccc1 was 37% (inactive)

Reported growth inhibition for N#CC(=C1C=CC(=NO)C=C1)c1ccccc1 was 99% (active)

Reported growth inhibition for CCCCCCCCN1C(=O)c2ccccc2C1=O was 4% (inactive)

Reported growth inhibition for Cc1ccc2c(ccc(/C=C/c3ccc(O)c4ncccc34)[n+]2C)c1 was 91% (active)

Reported growth inhibition for COC(=O)c1n[nH]c(C)c1N=NN(C)CCC#N was 98% (active)

====

assay: NCI Yeast Anticancer Drug Screen. Data for the mlh1 strain (AID 171);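 further: 0% = growth of vehicle-treated control cultures of the same strain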; conditions: S. cerevisiae mlh1 strain growth inhibition; at 11.0 µM; active compounds read high
About 79,000 compounds went through this panel and 15% of them were active in at least one assay; those are over-represented in the sample as a whole.
Assay Metric: growth inhibition (%)
Report as a plain number; the unit % is understood.

{"Compound": "CN(C)CCN1C(=O)c2cccc3cc([N+](=O)[O-])cc(c23)C1=O", "Value Units": "%", "Measured Value": -13}
{"Compound": "Clc1nc(C(Cl)Cl)nc2sc3c(c12)CCCC3", "Value Units": "%", "Measured Value": 7}
{"Compound": "CCC(c1ccc(O)cc1)C(CC)c1ccc(OCCN)cc1 (stereo not drawn)", "Value Units": "%", "Measured Value": -5}
{"Compound": "c1ccc(N2N=C3N(c4ccccc4)C2N3c2ccccc2)cc1", "Value Units": "%", "Measured Value": -7}
{"Compound": "O=C1NC(c2c(Cl)cccc2Cl)Nc2ccccc21 (stereo not drawn)", "Value Units": "%", "Measured Value": -40}
{"Compound": "CCCCC(CC)C(=O)Oc1ccc(C(=O)c2ccccc2)c(O)c1 (stereo not drawn)", "Value Units": "%", "Measured Value": 3}
{"Compound": "O=C(Nc1ccc2c(c1)Cc1c-2ccc([N+](=O)[O-])c1F)C(F)(F)F", "Value Units": "%", "Measured Value": 3}
{"Compound": "CCOP1(=O)C=C(Sc2ccc([N+](=O)[O-])cc2[N+](=O)[O-])C(C)(C)O1 (stereo not drawn)", "Value Units": "%", "Measured Value": 14}

Reported growth inhibition for O=S(=O)(N/N=C/c1cccc(Cl)c1)c1ccccc1 was 11

Reported growth inhibition for CC1CCC2(C(=O)O)CCC3(C)C(=CCC4C5(C)CC(O)C(O)C(C)(CO)C5C(O)CC43C)C2C1C (stereo not drawn) was -20

Reported growth inhibition for CN(CC(=O)O)c1ccc(/C=C/c2ccnc3ccccc23)cc1 was 3

====

experiment: NCI Yeast Anticancer Drug Screen. Data for the rad18 strain (AID 177); conditions: S. cerevisiae rad18 mutant growth inhibition; at 1.2 µM; active compounds read high
About 79,000 compounds went through this panel and 15% of them were active in at least one assay; those are over-represented in the sample as a whole.
Assay Metric: growth inhibition (%)
Report as a plain number; the unit % is understood.

{"Chemical Smiles": "CC(=O)N1C(=O)/C(=C\\C(=O)c2ccc([N+](=O)[O-])cc2)c2ccccc21", "Value Units": "%", "growth inhibition": 1}
{"Chemical Smiles": "Oc1ccc(C=Nc2ccccc2O)cc1", "Value Units": "%", "growth inhibition": 61}
{"Chemical Smiles": "CC(=O)CC(=O)/C=C/c1cccs1", "Value Units": "%", "growth inhibition": -20}
{"Chemical Smiles": "Cc1cc(Cl)nc2nc(Cl)c(N)cc12", "Value Units": "%", "growth inhibition": -29}
{"Chemical Smiles": "CN(C)c1ccc(/C=C/c2ccnc3ccccc23)cc1N", "Value Units": "%", "growth inhibition": -4}

Reported growth inhibition for COC(=O)c1ccc2c(c1)Cc1ccccc1-2 was -1

====

assay: NCI Yeast Anticancer Drug Screen. Data for the wt1 strain (AID 149);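 further: 0% = growth of vehicle-treated wt1 cultures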; details: S. cerevisiae wt1 strain (SPY 50644) growth inhibition; at 1.2 µM; active compounds read high
The panel holds about 79,000 compounds, 15% with a hit somewhere; the sample as a whole holds those more often.
Assay Metric: growth inhibition (%)
Report as a plain number; the unit % is understood.

Please review the entries below; each comes with its answer.
{"Compound": "CCOC(=O)CNC(=O)c1[nH]cnc1/N=N/N(C)C", "Measured Value": 8}
{"Compound": "CN(C)Cc1cccc(CN(C)C)[c]1[Sn]([Br])([c]1ccccc1)[c]1ccccc1", "Measured Value": 20}
{"Compound": "S=c1cn[nH]c2ccc(Br)cc12", "Measured Value": -5}
{"Compound": "Nc1nc(N)c2cc(Sc3ccc4ccccc4c3)ccc2n1", "Measured Value": 1}
{"Compound": "CN[C@@H]1C[C@H]2O[C@@](C)([C@@H]1OC)n1c3ccccc3c3c4c(c5c6ccccc6n2c5c31)C(=O)N[C@@H]4O", "Measured Value": -24}
{"Compound": "C=Cc1cnc([N+](=O)[O-])n1C", "Measured Value": 13}
{"Compound": "Cc1ccc2c(ccc(/C=C/c3ccc(O)c4ncccc34)[n+]2C)c1", "Measured Value": 4}
{"Compound": "CCC(c1ccc(O)cc1)C(CC)c1ccc(OCCN)cc1 (centres undefined)", "Measured Value": -4}

Proceed to the following item.
Reported growth inhibition for CC(=O)O[C@H]1C(=O)[C@@]2(C)[C@H]([C@H](OC(=O)c3ccccc3)[C@]3(O)C[C@H](OC(=O)[C@H](O)[C@@H](NC(=O)c4ccccc4)c4ccccc4)C(C)=C1C3(C)C)[C@]1(OC(C)=O)CO[C@@H]1C[C@@H]2O was -1

====

Assay: NCI Yeast Anticancer Drug Screen. Data for the rad50EPP+ strain (AID 151);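 further: 0% = growth of vehicle-treated control cultures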
Details: S. cerevisiae rad50 mutant strain, at 11.0 µM, active compounds read high
Experimental: Growth inhibition of yeast strains with defined genetic alterations is measured as a screen for potential anti-cancer activity. Selected strains with alterations in DNA damage repair or cell cycle control were exposed to compounds and growth inhibition was measured relative to vehicle treated controls. The strain used in this assay is rad50EPP+
The panel holds about 79,000 compounds, 15% with a hit somewhere; the sample as a whole holds those more often.
compounds and their reported growth inhibition
Report as a plain number; the unit % is understood.

Please review the entries below; each comes with its answer.
{"Compound": "CN(N=O)c1ccc(/C=C/c2ccnc3ccccc23)cc1", "Value Units": "%", "Measured Value": 68}
{"Compound": "CCCc1[nH]nc(C(N)=O)c1N=NN(C)C", "Value Units": "%", "Measured Value": 43}
{"Compound": "COc1ccc(N2CN(C)CSC2=S)cc1", "Value Units": "%", "Measured Value": 58}
{"Compound": "COc1cccc(C(c2cc3c(cc2O)OCO3)N2CCOCC2)c1OC (stereo not drawn)", "Value Units": "%", "Measured Value": 0}
{"Compound": "CCOC(=O)CNC(=O)c1[nH]cnc1/N=N/N(C)C", "Value Units": "%", "Measured Value": -21}
{"Compound": "COc1ccc(SCc2cc(OC)ccc2OC)cc1", "Value Units": "%", "Measured Value": 27}
{"Compound": "C/C=C/[P+](c1ccccc1)(c1ccccc1)c1ccccc1", "Value Units": "%", "Measured Value": -4}
{"Compound": "CCCCCCSc1nc(COC(=O)NC)c(COC(=O)NC)n1C", "Value Units": "%", "Measured Value": -6}
{"Compound": "COc1ccc(N=N/C(=N\\NC(=O)c2cc(Br)ccc2O)c2ccc(N(CCC#N)CCC#N)cc2OC)cc1", "Value Units": "%", "Measured Value": -11}
{"Compound": "O=c1[nH]c2ccccc2c2nc3ccccc3n12", "Value Units": "%", "Measured Value": 48}

Reported growth inhibition for CO[C@@]12[C@H](COC(N)=O)C3=C(C(=O)C(C)=C(N)C3=O)N1C[C@@H]1N[C@@H]12 was 25

Reported growth inhibition for N#CSC1CCCCNC1=O (stereo not drawn) was 42

Numbers sourced from PubChem BioAssay (NCI).
